readout_kind: melting point

The recorded melting point for N=C(Nc1cccc(NC(=O)/C=C/c2ccccc2Cl)c1)c1ccccc1 is 262 to 264 °C

The compound listed as NC(=O)CCCCCOc1cc2ccc(-c3ccc(C(=O)O)cc3)cc2cc1C12CC3CC(CC(C3)C1)C2 shows melting point equal to 209 to 210 °C

melting point recorded for this compound, Cc1c(SCCCSc2ccc3ncc([N+](=O)[O-])n3n2)ccnc1CCl , is 155 to 156 °C

Per the records, this compound ( Cc1cc(-c2ccccc2)nc(-c2cccc([N+](=O)[O-])c2)c1C(=O)NCCN1CCOCC1 ) has melting point equal to 147 to 148 °C

Field melting point (entry NC(=O)c1ccc(CCCNCC(O)c2ccccc2)cc1 (stereo not given) ) reads 106 to 108 °C

Lab note: Nc1nc(Cl)c2ncn(CC3CCOCO3)c2n1 (stereo not given) gave melting point of 169 to 170 °C

CCCN(CCC)C(=O)C(CCC(=O)NC)NC(=O)C=Cc1ccco1 (stereo not given) yielded melting point of 112 to 113 °C

Cc1nc2c(N)nc3cc(OCCC4CCN(C(=O)C(C)C)CC4)ccc3c2n1CC(C)C yielded melting point of 205 to 207 °C

Lab book: melting point of COC(=O)C(NC(C)=O)NC(=O)c1cc(Cl)cc(Cl)c1 (stereo not given) noted as 235 to 237 °C

// melting point value for CCCNCc1cc2ccc(NC(=O)c3ccc(OC[C@@H]4CCCO4)cc3)c(C)c2[nH]1 : 117 to 119 °C

melting point in this record for Cc1cccc(-c2nc3cccnn3c2-c2ccnc(NCC(C)(C)C)c2)c1 : 157 to 158 °C

// melting point value for O=C1CNC(c2cccc(Cl)c2)=NN1 : 228 to 230 °C

Summary for this compound, CCOc1cc2c(Nc3ccc(OC)cc3)c(CO)cnc2nc1C : melting point is 193 to 197 °C

melting point recorded for this compound, O=C(NCCCO)c1cccc(-c2ccc3c(n2)N(Cc2ccc(Cl)cc2Cl)CC3)c1 , is 145 to 146 °C

Summary for this compound, COc1ccc(C(=O)Nc2ccncc2)c2c3ccccc3n(Cc3ccc(F)cc3)c12 : melting point is 230 to 232 °C

Recorded result, O=C(O)c1ccc2oc(-c3ccc(C(F)(F)F)cc3)cc2c1 , melting point: > 260 °C

Note to self: melting point recorded for CCCc1cc(NC(=O)N2CCN(c3cc(F)cc(F)c3)CC2)c(OC)nc1C was 121 to 123 °C

Record CCOC(=O)c1nc(NC(C)=O)sc1Cc1ccccc1 , field melting point: 178 to 180 °C

Reported melting point for O=c1c(Br)c(N2CCC(c3ccccc3)CC2)ccn1CC1CC1 was 150 °C

Quick note, melting point for O=C(O)CN(C(=O)CCS)[C@H]1CC[C@H](c2ccccc2)CC1 landed at 125 to 130 °C

So, C[C@@H]1CN(c2nccc(Oc3ccc(NC(=O)c4cc(F)cc(N5CCOCC5)c4)c4ccccc34)n2)C[C@H](C)O1 ? Its melting point was 118 to 120 °C

Cc1cc(C#N)c(Nc2ccccc2[N+](=O)[O-])s1 yielded melting point of 99 to 102 °C

Lab note: CC(C)(C)C(NC(=O)Cc1ccc2ccccc2c1)NC(=NC#N)Nc1cccc2ncccc12 (stereo not given) gave melting point of 200 to 201 °C

# compound O=c1[nH]nc(-c2cccc(Cl)c2)c2ncccc12 ; its melting point = 268 to 269 °C

Reported melting point for CNC(=O)N1CCN(CC(O)COc2ccccc2)CC1 (stereo not given) was 91 to 95 °C

Record summary for COc1ccccc1C1(O)C(O)CC(C)(C)C2CN(C(=O)Cc3c[nH]c4ccccc34)CC21 (stereo not given) : reported melting point = 160 to 165 °C

Recorded melting point (compound NCCCP(=O)(O)Cc1ccccc1 ): 69 to 72 °C

Measured melting point of Nc1nc2c(c(=O)[nH]1)S[C@H](CCc1ccc(C(=O)O)s1)CN2 : 283 to 285 °C

Consider COc1ccc(S(=O)(=O)n2c(CCC(=O)O)cc3cc(Cl)ccc32)cc1 . Its measured melting point is 95 to 98 °C

Looking up C[C@@H]1COC(=O)N1c1nc(-c2cccc(C#N)c2)cs1 , I found its melting point recorded as 187 to 189 °C

Reported melting point for Cc1ccc(CS(=O)c2nc3cc4c(cc3[nH]2)OCO4)nc1 (stereo not given) was 185 to 187 °C

Measured melting point of Cc1ccc(NC(=O)c2ccc(C(=O)Nc3ccccc3N)s2)cc1Nc1nc(-c2cccnc2)cs1 : 242 °C

get_value(item= COc1cc2c(cc1C)C1(CO2)C(=O)N(CC2CCCO2)c2ccccc21 (stereo not given) , readout=melting point) returns 151 to 153 °C

CCCCCCCCCCCCNC1=NC(C)(C)N=C(NCc2ccc(S(N)(=O)=O)cc2)N1 has a reported melting point of 188 to 191 °C

// field: melting point; key: CCCCCCCCCCCCCCCC(=O)OCC(COCc1ccccc1)OC(=O)CCCCCCCCCCCCCCC (stereo not given) ; value = 40 to 42 °C

Per the record, O=C(Nc1ccccc1)C1=C(c2ccccc2)C(c2ccccc2)OC1=O (stereo not given) has melting point of 148 to 150 °C

melting point in this record for COC(=O)C1(CCCCl)Sc2cc(OC)ccc2OCC1=O (stereo not given) : 64 to 65 °C

// melting point lookup, compound = CC1(C)OCC2Cc3cc4c(cc3C(c3ccc([N+](=O)[O-])cc3)=NN21)OCO4 (stereo not given) , result: 171 to 173 °C

Data point: NN1CC1c1ccccc1 (stereo not given) ; melting point = 60 °C

Record CCCCCCCCCCCCCCCCCCOc1cn(Cc2ccccc2)c(CO)cc1=O . Reported melting point: 120 to 121 °C

The origin of these recorded values is a melting point compilation (Tetko et al.; mined from patent text by program, amines drawn as free bases though some values may be those of a salt).
